system: Human Endometrial Ishikawa Cells; experiment: Alkaline Phosphatase Assay in Human Endometrial Ishikawa Cells; format: cell-based; details: Homo sapiens, Ishikawa, 72 h; agonist mode; alkaline phosphatase activity, 3 days; read-out: Ishikawa Agonist EC50
Hi there, I'd appreciate the recorded EC50 for every entry that follows.

Consider the molecule shown here: CCOC(=O)C1CC=C(c2ccc(OC)cc2)C(Cc2ccc(OCCN3CCCCC3)cc2)C1C (centres unmarked) What is its recorded EC50?
> 10 µM

EC50 for CC1(CO)CCC(c2ccc(O)cc2)=C(c2ccc(O)cc2)C1 (centres unmarked) ?
> 10 µM

I'd like to know its EC50. The molecule in question is O=C1CCCC2CC(c3ccccc3)=C(c3ccccc3)CC12 (centres unmarked)
> 10 µM

Fill in: EC50 of COc1ccc(C2=C(c3ccc(OC)cc3)CC3C(CC[C@@H]3O)C2)cc1 (some centres unmarked) is ___
> 10 µM

Record request: EC50 value, item COc1ccc(C2=C(c3ccc(OC)cc3)CC(CO)C(CO)C2)cc1 (centres unmarked)
> 10 µM

Origin of values: patent US7183445B2
